molecular target: L1 (DV1-GV4) soluble heterodimeric γδ TCR antigen, leucine zipper (LZ) format (human); experiment: DELFIA affinity ranking with 100 nM biotinylated L1
Sequence (main, as listed by the source): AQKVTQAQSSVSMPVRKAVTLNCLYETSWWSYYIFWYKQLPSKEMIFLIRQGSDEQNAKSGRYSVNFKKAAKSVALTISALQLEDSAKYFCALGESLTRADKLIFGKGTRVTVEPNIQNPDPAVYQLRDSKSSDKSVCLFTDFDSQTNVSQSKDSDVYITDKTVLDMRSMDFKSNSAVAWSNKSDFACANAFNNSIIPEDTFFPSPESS
The entries below are paired with their reported 100 nM L1 (DELFIA signal) (fluorescence units).
Reply with just the number.

1245_P02_F07 (scFv) (scFv) scFv: QVQLQQSGPGLVKPSQTLSLTCVISGDSVSSNSAAWNWIRQSPSRGLEWLGRTYYRSKWYNDYAVSVKSRITINPDTSKNQFSLQLNSVTPEDTAVYYCARDYYYSMDVWGQGTMVTVSSGGGGSGGGGSGGGASDIQMTQSPSTLSASVGDRVTITCRASQSISSWLAWYQQKPGKAPKLLIYDASSLESGVPLRFSGSGSGTEFTLTISSLQPDDFATYYCQQSHSHPPTFGPGTKVDIK = 10400
1139_P01_E04 (scFv) (scFv) scFv: QVQLQQSGPGLVKPSQTLSLTCAISGDSVSSNSAAWNWIRQSPSRGLEWLGRTYYRSKWYNDYAVSVRSRITINPDTSKNQFSLQLNSVTPEDTAVYYCARSWNDAFDIWGQGTTVTVSSGGGGSGGGGSGGGASDIVMTQSPSTLSASIGDRVTITCRAGQSISTWLAWYQQKPGKAPKLLIYDASSLESGVPLRFSGSGSGTDFTLTISSLQPEDFATYYCQQSYSTPLTFGGGTKVEIK = 23800
1245_P01_E07 (scFv) (scFv) scFv: QVQLVESGGGLVKPGGSLRLSCAASGFTFSDYYMSWIRQAPGKGLEWVSYISSSGSTIYYADSVKGRFTISRDNAKNSLYLQMNSLRAEDTAVYYCARVDYADAFDIWGQGTLVTVSSGGGGSGGGGSGGGASDIQMTQSPSSLSASVGDRVTIACRAGQSIGTYLNWYQQKPGKAPKLLIYVASSLQSGVPSRFSGSGSGTEFTLTISSLQPEDFATYYCQQSYSTLLTFGRGTKVEIK = 163000

API: the following record is the query input.
Entry 1141_P01_E01 (scFv) (scFv) scFv: QVQLVQSGAEVKKPGESLKISCKGSGYSFTSYWIGWVRQMPGKGLEWMGIIYPGDSDTRYSPSFQGQVTISADKSISTAYLQWSSLKASDTAMYYCARHQVDTRTADYWGQGTLVTVSSGGGGSGGGGSGGGASQSALTQPASVSGSPGQSVTISCTGTRSDVGGYNYVSWYQHHPGKAPKLMIYEVSNRPSGVSNRFSGSKSGNTASLTISGLQAEDEADYYCSSYTSTSTLVFGGGTKLTVL , 100 nM L1 (DELFIA signal) (fluorescence units) reported as 137000
